This collection of values is drawn from patent US7737155B2.

Each entry below lists one item and its recorded pEC50 value.
Molecular target: recombinant human nicotinic acid receptor (NAR) (Homo sapiens, UniProt Q8TDS4)
Sequence (Q8TDS4 whole entry): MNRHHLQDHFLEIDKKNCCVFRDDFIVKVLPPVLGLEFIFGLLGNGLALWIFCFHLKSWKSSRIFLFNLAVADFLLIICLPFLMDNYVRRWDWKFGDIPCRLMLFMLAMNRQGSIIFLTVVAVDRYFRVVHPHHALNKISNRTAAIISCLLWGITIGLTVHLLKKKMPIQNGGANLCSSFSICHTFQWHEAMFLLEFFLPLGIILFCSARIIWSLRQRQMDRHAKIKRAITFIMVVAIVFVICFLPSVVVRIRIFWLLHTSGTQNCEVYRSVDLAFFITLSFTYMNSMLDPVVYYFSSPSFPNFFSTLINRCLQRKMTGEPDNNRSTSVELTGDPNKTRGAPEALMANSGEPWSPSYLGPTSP
Assay: Nicotinic Acid Receptor Assay: inhibition of forskolin-stimulated cAMP accumulation in CHO cells (MesoScale Discovery cAMP kit)
Assay type: cell-based
Details: CHO cells expressing recombinant human NAR; forskolin-stimulated cAMP; read-out: NA EC50 camp
Procedure: The nicotinic acid receptor agonist activity of the inventive compounds was determined by following the inhibition of forskolin-stimulated cAMP accumulation in cells using the MesoScale Discovery cAMP detection kit following the manufacture's protocol. […] Prior to reading, 10 μL of read buffer was added to each well, and the plate was read in a Sector 6000 plate imager. […]
pEC50: −log10 of the molar value.

// known answers, use as guide
compound	experimental_value
O=c1[nH]c(=O)c2c(Cc3cccc4ccccc34)cc(=O)oc2[nH]1 [Compound 265]	< 6.00
CCc1cc(=O)oc2nc(OCc3cc(C)n(C)n3)[nH]c(=O)c12 [Compound 530]	6.00 to 7.00
CCc1cc(=O)oc2nc(OCC#Cc3ccccc3)[nH]c(=O)c12 [Compound 522]	6.00 to 7.00
CCc1cc(=O)oc2nc(OCc3cccc(-c4cccc(OC)c4)c3)[nH]c(=O)c12 [Compound 561]	6.00 to 7.00
CCc1cc(=O)oc2nc(O[C@H](C)C#CC(=O)OCc3ccccc3)[nH]c(=O)c12 [Compound 635]	< 6.00

[ask] Fill in the blank: the reported pEC50 of O=c1[nH]c(=O)c2c(C3CCCCC3)cc(=O)oc2[nH]1 [Compound 212] is ____.
[reply] 6.00 to 7.00

[ask] Fill in the blank: the reported pEC50 of CCc1cc(=O)oc2nc(OCc3c(-c4ccccc4)noc3C)[nH]c(=O)c12 [Compound 526] is ____.
[reply] 6.00 to 7.00

[ask] Fill in the blank: the reported pEC50 of O=c1[nH]c(=O)c2c(CCCOc3ccccc3)cc(=O)oc2[nH]1 [Compound 208] is ____.
[reply] < 6.00

[ask] Fill in the blank: the reported pEC50 of CCc1cc(=O)oc2nc(OCC#Cc3cccc(Cl)c3)[nH]c(=O)c12 [Compound 626] is ____.
[reply] 7.00 to 12.00

[ask] Fill in the blank: the reported pEC50 of Cc1ccccc1-c1cc(CCCc2cc(=O)oc3[nH]c(=O)[nH]c(=O)c23)on1 [Compound 243] is ____.
[reply] 6.00 to 7.00

====

Target: recombinant human nicotinic acid receptor (NAR) (Homo sapiens)
Assay: Nicotinic Acid Receptor Assay: inhibition of forskolin-stimulated cAMP accumulation in CHO cells (MesoScale Discovery cAMP kit)
Type: cell-based
Conditions: inhibition of forskolin-stimulated cAMP accumulation, CHO cells expressing recombinant human NAR; read-out: NA EC50 camp
pEC50: −log10 of the molar value.
endpoint_name: pEC50

A: CCCCCc1cc(=O)oc2nc(CF)[nH]c(=O)c12 [Compound 744]
B: CCC#CCOc1nc2oc(=O)cc(CCCC)c2c(=O)[nH]1 [Compound 734]
[ask] Just curious, which one has the larger pEC50 reading, A or B ? Output the label that corresponds to your choice.
[reply] B
(B: 7.14, A: 6.89)

====

Target: recombinant human nicotinic acid receptor (NAR) (Homo sapiens)
Assay: Nicotinic Acid Receptor Assay: inhibition of forskolin-stimulated cAMP accumulation in CHO cells (MesoScale Discovery cAMP kit)
Type: cell-based
Details: CHO cells expressing recombinant human NAR; forskolin-stimulated cAMP; read-out: NA EC50 camp
pEC50: −log10 of the molar value.
endpoint_name: pEC50

// known answers, use as guide
compound	experimental_value
CCc1cc(=O)oc2nc(OCc3ccccc3-c3ccc(F)cc3)[nH]c(=O)c12	< 6.00
CCc1cc(=O)oc2nc(O[C@H](C)c3ccc4ccccc4c3)[nH]c(=O)c12	6.00 to 7.00
CCc1cc(=O)oc2nc(OCc3conc3C)[nH]c(=O)c12	< 6.00
CCc1cc(=O)oc2nc(OCc3cc(-c4ccccc4)oc3C)[nH]c(=O)c12	< 6.00
CCc1cc(=O)oc2nc(OCC3CCCCO3)[nH]c(=O)c12 (centres unmarked)	< 6.00

[ask] Fill in the blank: the reported pEC50 of CC1(CCc2cc(=O)oc3[nH]c(=O)[nH]c(=O)c23)CC1 is ____.
[reply] 6.00 to 7.00

[ask] Fill in the blank: the reported pEC50 of CC(Cc1cc(=O)oc2[nH]c(=O)[nH]c(=O)c12)CC(C)(C)C (centres unmarked) is ____.
[reply] < 6.00

[ask] Fill in the blank: the reported pEC50 of CCc1cc(=O)oc2nc(OCc3cc(C)ccc3C)[nH]c(=O)c12 is ____.
[reply] 6.00 to 7.00

[ask] Fill in the blank: the reported pEC50 of O=c1[nH]c(=O)c2c(C3CCCC3)cc(=O)oc2[nH]1 is ____.
[reply] < 6.00

[ask] Fill in the blank: the reported pEC50 of CCc1cc(=O)oc2nc(OCCOCc3csc4ccccc34)[nH]c(=O)c12 is ____.
[reply] 7.00 to 12.00

[ask] Fill in the blank: the reported pEC50 of O=c1[nH]c(=O)c2c(CCC#Cc3ccccc3)cc(=O)oc2[nH]1 is ____.
[reply] < 6.00

[ask] Fill in the blank: the reported pEC50 of O=c1[nH]c(=O)c2c(CCCOC3CCCCC3)cc(=O)oc2[nH]1 is ____.
[reply] < 6.00

====

Target: recombinant human nicotinic acid receptor (NAR) (Homo sapiens, UniProt Q8TDS4)
Test: Nicotinic Acid Receptor Assay: inhibition of forskolin-stimulated cAMP accumulation in CHO cells (MesoScale Discovery cAMP kit)
Format: cell-based
Conditions: inhibition of forskolin-stimulated cAMP accumulation, CHO cells expressing recombinant human NAR; read-out: NA EC50 camp
endpoint_name: EC50 (nM)

compound	EC50 [nM]
CC(C)(C)CCCc1cc(=O)oc2[nH]c(=O)[nH]c(=O)c12	49.9
COn1c(=O)[nH]c2oc(=O)cc(CCC3CCC3)c2c1=O	19
CCCCCCc1cc(=O)oc2nc(CF)[nH]c(=O)c12	286
CC1CCC(Cc2cc(=O)oc3[nH]c(=O)[nH]c(=O)c23)CC1 (centres unmarked)	57.3
O=c1[nH]c(=O)c2c(CCC3CCCC3)cc(=O)oc2[nH]1	1.2

I: CCCCc1cc(=O)oc2[nH]c(=O)[nH]c(=O)c12
II: C#CCCCc1cc(=O)oc2[nH]c(=O)[nH]c(=O)c12
III: CCc1cc(=O)oc2[nH]c(=O)n(C3CCC3)c(=O)c12
IV: CCc1cc(=O)oc2nc(OCC#CC(C)O)[nH]c(=O)c12 (centres unmarked)
[ask] Returns the items ordered by EC50, from maximum to minimum. Note for the reader: the ranking is given by listing the labels in the order requested.
[reply] IV, I, III, II
(IV: 49.9 nM, I: 31 nM, III: 9 nM, II: 6.3 nM)

A: CCC(C)CCc1cc(=O)oc2nc(C(F)F)[nH]c(=O)c12 (centres unmarked)
B: O=c1nc(OCC(F)F)c2c(CCC3CCC3)cc(=O)oc2[nH]1
C: O=c1[nH]c(=O)c2c(CCCCC(F)(F)F)cc(=O)oc2[nH]1
D: O=c1[nH]c(=O)c2c(CC3CCC(F)(F)CC3)cc(=O)oc2[nH]1
E: CCCCc1cc(=O)oc2nc(C(F)(F)F)[nH]c(=O)c12
[ask] Returns the items ordered by EC50, from maximum to minimum. Note for the reader: the ranking is given by listing the labels in the order requested.
[reply] E, B, A, D, C
(E: 8920 nM, B: 112 nM, A: 40 nM, D: 26.5 nM, C: 14.4 nM)

1: COn1c(=O)[nH]c(=O)c2c(CCC3CCCC3)cc(=O)oc21
2: O=c1nc(OCCF)c2c(CCCC3CC3)cc(=O)oc2[nH]1
3: CCc1cc(=O)oc2nc(OC(C)c3ccccc3F)[nH]c(=O)c12 (centres unmarked)
[ask] Arrange the 3 compounds by rising EC50, starting with the smallest. Note for the reader: the ranking is given by listing the labels in the order requested.
[reply] 1, 2, 3

====

Biological target: recombinant human nicotinic acid receptor (NAR) (Homo sapiens)
Experiment: Nicotinic Acid Receptor Assay: inhibition of forskolin-stimulated cAMP accumulation in CHO cells (MesoScale Discovery cAMP kit)
Assay type: cell-based
Settings: CHO cells expressing recombinant human NAR; forskolin-stimulated cAMP; read-out: NA EC50 camp
Each entry below lists one item and its recorded EC50 value.

// known answers, use as guide
compound	endpoint_name	experimental_value
CCc1cc(=O)oc2nc(OCC#CCN(C)C)[nH]c(=O)c12	EC50	0.001 to 100 nM
CCc1cc(=O)oc2nc(OC(C)c3ccccc3C(F)(F)F)[nH]c(=O)c12 (stereo not drawn)	EC50	> 1000 nM

Shift focus to the following entry.
[ask] Any idea what EC50 came out for CCc1cc(=O)oc2nc(OCCN3CCCCC3)[nH]c(=O)c12 on recombinant human nicotinic acid receptor (NAR) (Homo sapiens)?
[reply] > 1000 nM
